Assayed Target: T1, cynomolgus CD47 on CHO-K1 stable cell line (cynomolgus, UniProt A0A5F8AK49 19-323 (rhesus entry))
T1 construct: whole, on cells; also called cynomolgus CD47/CHO-K1
Measurement Notes: flow cytometry on cynomolgus CD47 CHO-K1 cells

# Binder, EC50 (nM)
data = [
    ("108VH4.M4-VL1.M1 (antibody, V domains shown, also called original humanized 108C10A6 antibody) VH: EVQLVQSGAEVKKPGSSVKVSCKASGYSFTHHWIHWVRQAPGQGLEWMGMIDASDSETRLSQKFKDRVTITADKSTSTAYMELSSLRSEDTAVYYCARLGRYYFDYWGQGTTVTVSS VL: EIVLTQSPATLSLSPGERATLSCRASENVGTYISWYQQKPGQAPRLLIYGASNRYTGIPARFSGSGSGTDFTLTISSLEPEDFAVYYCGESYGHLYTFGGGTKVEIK", 4.3),
    ("Hu5F9 (antibody, V domains shown) VH: QVQLVQSGAEVKKPGASVKVSCKASGYTFTNYNMHWVRQAPGQRLEWMGTIYPGNDDTSYNQKFKDRVTITADTSASTAYMELSSLRSEDTAVYYCARGGYRAMDYWGQGTLVTVSS VL: DIVMTQSPLSLPVTPGEPASISCRSSQSIVYSNGNTYLGWYLQKPGQSPQLLIYKVSNRFSGVPDRFSGSGSGTDFTLKISRVEAEDVGVYYCFQGSHVPYTFGQGTKLEIK", 0.6),
    ("108VH5.M23 / 108VL1.M5 (antibody, human IgG4 S228P, kappa, V domains shown, Full-length IgG4 (S228P), kappa; also called VH5.M23 VL1.M5) VH: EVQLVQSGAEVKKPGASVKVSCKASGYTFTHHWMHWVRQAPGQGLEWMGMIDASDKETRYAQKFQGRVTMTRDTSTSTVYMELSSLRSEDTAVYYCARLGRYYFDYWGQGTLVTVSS VL: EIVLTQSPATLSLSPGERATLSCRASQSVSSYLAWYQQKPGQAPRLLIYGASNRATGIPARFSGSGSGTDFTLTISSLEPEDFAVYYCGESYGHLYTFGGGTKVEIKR", 3.2),
]
